Tested on: KYSE-510
experiment description: Cytotoxicity against human KYSE510 cells after 96 hrs by microtiter assay
Assay type: functional, cell-based
measurement conditions: KYSE-510, 96 h
# note: boundary value 7 µM maps to N; IC50 below it maps to Y

>>> df
                                    compound  classification
 0  Cc1cc2nc(/C(C#N)=C/c3ccc([N+](=O)[O-])s3)[nH]c2cc1C               Y
 1         S=P(N1CC1)(N1CC1)N1CC1 [THIOTEPA]               Y
 2  N#C/C(=C\c1cccc([N+](=O)[O-])c1)n1cnc2ccccc21               Y
 3  N#C/C(=C\c1ccc([N+](=O)[O-])s1)c1nc2ccccc2s1               Y
 4  N#C/C(=C\c1ccc([N+](=O)[O-])s1)c1nc2cccnc2[nH]1               Y
 5         N#C/C(=C\c1ccsc1)c1nc2ccccc2[nH]1               N
 6  N#C/C(=C\c1ccc([N+](=O)[O-])o1)c1nc2cccnc2[nH]1               Y
 7        N#C/C(=C\c1ccncc1)c1nc2ccccc2[nH]1               N
 8     N#C/C(=C\c1csc(Br)c1)c1nc2ccccc2[nH]1               N
 9  O=C(Cn1cnc2ccccc21)NC(O)c1ccc([N+](=O)[O-])o1 (stereo not drawn)               N
10  O=C(Cn1cnc2ccccc21)NC(O)c1ccc([N+](=O)[O-])s1 (stereo not drawn)               N
11     COc1ccc(/C=C(\C#N)c2nc3ccccc3[nH]2)s1               N
12  N#C/C(=C\c1ccc([N+](=O)[O-])s1)c1nc2ccccc2o1               N
13  N[C@@H](Cc1ccc(N(CCCl)CCCl)cc1)C(=O)O [MELPHALAN]               N
14  O=C1CN(/N=C/c2ccc([N+](=O)[O-])o2)C(=O)N1 [NITROFURANTOIN]               N
15  N#C/C(=C\c1ccc([N+](=O)[O-])o1)c1nc2ccccc2s1               Y
16           N#C/C(=C\c1ccccn1)c1nc2ccccc2s1               N
17  N#C/C(=C\c1ccc([N+](=O)[O-])cc1)n1cnc2ccccc21               Y
18  N#C/C(=C\c1ccc([N+](=O)[O-])s1)c1nc2ccccc2[nH]1               Y
19        N#C/C(=C\c1ccccn1)c1nc2ccccc2[nH]1               Y
20        N#C/C(=C\c1cccnc1)c1nc2ccccc2[nH]1               Y
21        N#C/C(=C\c1ccccn1)c1nc2cccnc2[nH]1               N

###

// values below are reported IC50
Test system: MCF7
experiment description: Cytotoxicity against human MCF7 cells after 96 hrs by microtiter assay
Type: functional, cell-based
measurement conditions: MCF7, 96 h
result type: IC50 (µM)

>>> df
                                    compound  result_type  censoring_sign  readout_number
 0  N#C/C(=C\c1ccc([N+](=O)[O-])s1)c1nc2ccccc2[nH]1         IC50               =            0.26
 1  N#C/C(=C\c1ccc([N+](=O)[O-])o1)c1nc2ccccc2o1         IC50               =            2.87
 2  N#C/C(=C\c1ccc([N+](=O)[O-])s1)c1nc2cccnc2[nH]1         IC50               =             0.2
 3         N#C/C(=C\c1ccsc1)c1nc2ccccc2[nH]1         IC50               =            14.4
 4           N#C/C(=C\c1ccccn1)c1nc2ccccc2s1         IC50               =            4.34
 5  O=C1CN(/N=C/c2ccc([N+](=O)[O-])o2)C(=O)N1         IC50               =            4.44
 6     N[C@@H](Cc1ccc(N(CCCl)CCCl)cc1)C(=O)O         IC50               =            3.71
 7  N#C/C(=C\c1ccc([N+](=O)[O-])cc1)n1cnc2ccccc21         IC50               =            2.47
 8     N#C/C(=C\c1csc(Br)c1)c1nc2ccccc2[nH]1         IC50               >              40
 9        N#C/C(=C\c1ccccn1)c1nc2cccnc2[nH]1         IC50               =            8.28
10        N#C/C(=C\c1cccnc1)c1nc2ccccc2[nH]1         IC50               =            3.15
11  O=C(Cn1cnc2ccccc21)NC(O)c1ccc([N+](=O)[O-])o1 (configuration not stated)         IC50               =            5.37
